These measurements were taken from PubChem BioAssay (NCI).

System: IGROV1 ovarian
Assay: NCI tumour cell line growth inhibition, 48 h
// reported GI50 per item

[
  {
    "compound": "COc1ccc(-c2ccc(C3CC(c4ccccc4)=NN3)o2)c([N+](=O)[O-])c1 (stereo not given)",
    "GI50": "> 100 µM"
  },
  {
    "compound": "CCC[CH2][Sn-]([CH2]CCC)([CH2]CCC)[O]C(=O)C(C)C",
    "GI50": "0.166 µM"
  },
  {
    "compound": "O=C1c2cc3c(cc2-c2c1c1cc(F)c(F)cc1c(=O)n2CCCn1ccnc1)OCO3",
    "GI50": "0.14 µM"
  },
  {
    "compound": "O=S(=O)(NC1=NCCN1C(=S)SN1CCn2c1nsc2=S)c1ccc(Cl)cc1",
    "GI50": "10.2 µM"
  },
  {
    "compound": "COc1cc2c(cc1C)NC(=O)/C2=C/c1ccnc2ccccc12",
    "GI50": "12.6 µM"
  }
]
